Test system: RPMI-8226 leukemia
protocol-details: NCI-60 one-dose screen, 48 h
measurement-parameters: 10 µM
This is part of a sample that, as a whole, favours compounds with a hit. Of some 83,000 tested, about 20% had one in any assay. The source made the active and inactive calls. How the source made its calls: active means growth percent below 10; inactive means the rest.
The categories you may choose from are Yes = active, No = inactive

Q. What did the test return for `O=C(O)CN1C(=O)C=CC1=O` ?
A. No

Q. What did the test return for `CCc1c(C)[nH]c(=O)c(C(N)=O)c1C#N` ?
A. No

Q. What did the test return for CCCCCCCCCCCC(c1ccccc1)N(C)C (configuration not stated) ?
A. No

Q. What did the test return for `O=[N+]([O-])c1ccc(S(=O)(=O)OCCCCOS(=O)(=O)c2ccc([N+](=O)[O-])cc2)cc1` ?
A. No

Q. What did the test return for `N=C(N)c1ccc(-c2ccc(-c3ccccc3)s2)cc1F` ?
A. Yes

Q. What did the test return for `CCCCCCCCCCCCCC[n+]1ccccc1` ?
A. Yes

Q. What did the test return for O/N=C1\CCC2CCCCC2C1 (configuration not stated) ?
A. No

Q. What did the test return for `CCOC(=O)c1c(C)n(-c2ccc(Cl)cc2)c2ccc(OC(=O)/C=C/c3ccccc3)cc12` ?
A. No

Q. What did the test return for `COc1cc(-c2nc3ccc(C)cc3[nH]2)ccc1OCc1nnc(-c2ccc(CC(C)C)cc2)o1` ?
A. No

Q. What did the test return for `CCN(CC)CCOC(=O)c1ccc(N=Nc2ccc(O)c(OC)c2)cc1` ?
A. No

Q. What did the test return for `CCn1nc(-c2ccc(C(=O)OC)cc2)nc2c(=O)n(C)c(=O)nc1-2` ?
A. No

Q. What did the test return for `CN(C)Cc1cccs1` ?
A. No

====

Tested on: M14 melanoma
protocol-details: NCI-60 one-dose screen, 48 h
measurement-parameters: 10 µM
This is part of a sample that, as a whole, favours compounds with a hit. Of some 83,000 tested, about 20% had one in any assay. Calls of active or inactive are those of the source. How the source made its calls: active means growth percent below 10; inactive means the rest.
The categories you may choose from are active, inactive

Q. What did the test return for `Cc1ccccc1C1=N[C@@H](Cc2ccccc2)C(=O)c2c(nc3ccccn23)N1` ?
A. inactive

Q. What did the test return for `COc1ccc(-c2nnc(SCC(=O)c3ccccc3)o2)cc1` ?
A. inactive

Q. What did the test return for `Cc1ccc(-c2cc(C(=O)Nc3ccc(S(=O)(=O)N4CCCCC4)cc3)[nH]n2)c(O)c1` ?
A. inactive

Q. What did the test return for `C=C1C(=O)O[C@H]2[C@H]1CC/C(COC(=O)OCCCCCOC(=O)OC/C1=C/CC[C@@]3(C)O[C@H]3[C@H]3OC(=O)C(=C)[C@@H]3CC1)=C\CC[C@@]1(C)O[C@@H]21` ?
A. active

Q. What did the test return for `O=C(COCc1c(-c2ccccc2)no[n+]1[O-])Nc1nc(-c2ccc(Cl)cc2)cs1` ?
A. inactive

Q. What did the test return for `CC(C)/C(=N/O)c1ccccc1` ?
A. inactive

Q. What did the test return for NS(=O)(=O)c1ccc(N2N=C(c3ccc(-c4ccccc4)cc3)CC2c2ccc(Cl)cc2)cc1 (stereo not drawn) ?
A. inactive

Q. What did the test return for COc1ccc2oc(=O)cc(C3c4ccc([nH]4)C(c4cc(=O)oc5ccc(OC)cc45)c4ccc([nH]4)C(c4cc(=O)oc5ccc(OC)cc45)c4ccc([nH]4)C(c4cc(=O)oc5ccc(OC)cc45)c4ccc3[nH]4)c2c1 (stereo not drawn) ?
A. active
